# target entity: Glycogen synthase kinase-3 alpha (Homo sapiens) (UniProt P49840)
# Sequence (P49840 whole entry, looked up): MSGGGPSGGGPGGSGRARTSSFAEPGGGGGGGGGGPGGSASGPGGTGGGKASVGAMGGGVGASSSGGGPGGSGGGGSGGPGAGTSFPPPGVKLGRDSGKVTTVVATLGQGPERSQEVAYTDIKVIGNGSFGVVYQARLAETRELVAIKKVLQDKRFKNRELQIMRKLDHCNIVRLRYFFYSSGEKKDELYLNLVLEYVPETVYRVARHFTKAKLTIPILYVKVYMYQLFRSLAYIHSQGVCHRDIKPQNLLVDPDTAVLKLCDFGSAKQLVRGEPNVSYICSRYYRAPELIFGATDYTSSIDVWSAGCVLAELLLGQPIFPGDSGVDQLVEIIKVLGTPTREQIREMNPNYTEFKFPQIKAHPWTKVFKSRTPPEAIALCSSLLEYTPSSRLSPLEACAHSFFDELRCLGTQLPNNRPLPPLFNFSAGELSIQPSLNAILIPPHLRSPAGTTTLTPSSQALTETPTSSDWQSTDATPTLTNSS
# test description: concentration-response blocking of human GSK3A – biochemical, luminescence, cell-free homogeneous, retest, dose response (AID 463203)
# condition details: GSK-3 alpha enzyme, ADP-Glo luminescence, 60 min
Activity calls are given as the source filed them.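 How the source made its calls: active means more than half of replicate measurements showing over 20% loss of kinase signal relative to plate controls; inconclusive means some but at most half of replicates over 20% loss; inactive means no replicate over 20% signal loss.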
metric name: AC50

Before answering, review these 5 worked examples.
COc1ccc(CCNc2nc(C)cc(C)n2)cc1OC ... > 30 µM (inactive)
CCC(=O)C1CCCN(C(=O)CCc2nnc(-c3ccc4c(c3)OCO4)o2)C1 (stereo not given) ... > 30 µM (inactive)
N#CC1=C(S)N(c2ccccc2)C(c2ccco2)NC1=O (stereo not given) ... > 30 µM (inactive)
CCS(=O)(=O)N1CCN(c2ccnc3cc(Cl)ccc23)CC1 ... > 30 µM (inactive)
S=c1[nH]nc(-c2cc3c(s2)-c2ccccc2CC3)o1 ... 22.9 µM

Could you share what AC50 was measured for CCOC(=O)N1CCC(N2CCN(S(=O)(=O)c3ccc(C)cc3)CC2)CC1 , tested on Glycogen synthase kinase-3 alpha (Homo sapiens) (UniProt P49840)?
> 30 µM (inactive)

Could you share what AC50 was measured for CN(C)C(=S)Nc1ccc([N+](=O)[O-])cc1 , tested on Glycogen synthase kinase-3 alpha (Homo sapiens) (UniProt P49840)?
> 30 µM (inactive)

Could you share what AC50 was measured for C#CCOCCOCCOCCNc1nc(N2CCN(C(=O)CCCCCCCCCCNC(=O)[C@H](CCCCN)n3cc(C)nn3)CC2)nc(N2CCN(C(=O)CCCCCCCCCCNC(=O)[C@H](CCCN=C(N)N)n3cc(C[C@@H](C)CC)nn3)CC2)n1 , tested on Glycogen synthase kinase-3 alpha (Homo sapiens) (UniProt P49840)?
> 30 µM (inactive)

Could you share what AC50 was measured for COc1cc(C2c3sc(=O)[nH]c3SC3C4CCC(C4)C23)ccc1O (stereo not given) , tested on Glycogen synthase kinase-3 alpha (Homo sapiens) (UniProt P49840)?
1.22 µM

Could you share what AC50 was measured for CC(=O)c1ccc(N=Nc2c(C)[nH][nH]c2=O)cc1 , tested on Glycogen synthase kinase-3 alpha (Homo sapiens) (UniProt P49840)?
24.5 µM

Could you share what AC50 was measured for c1ccc(N2CCN(c3nc4ccccc4n4cnnc34)CC2)cc1 , tested on Glycogen synthase kinase-3 alpha (Homo sapiens) (UniProt P49840)?
> 30 µM (inactive)

Could you share what AC50 was measured for COc1ccc(NC(=O)c2c(Nc3ccccc3)sc(C(=O)c3ccc(F)cc3)c2N)cc1 , tested on Glycogen synthase kinase-3 alpha (Homo sapiens) (UniProt P49840)?
> 30 µM (inactive)

Could you share what AC50 was measured for COc1ccc(/C=N/NC(=O)c2nnn(-c3nonc3N)c2-c2cccs2)c(OC)c1 , tested on Glycogen synthase kinase-3 alpha (Homo sapiens) (UniProt P49840)?
1.04 µM

Could you share what AC50 was measured for Cc1cc2oc(C(=O)NCCc3ccc(S(N)(=O)=O)cc3)c(C)c2cc1C , tested on Glycogen synthase kinase-3 alpha (Homo sapiens) (UniProt P49840)?
> 30 µM (inactive)

Could you share what AC50 was measured for CCN(CC)CCCN(Cc1cc2cc3c(cc2[nH]c1=O)OCO3)C(=O)Nc1ccccc1OC , tested on Glycogen synthase kinase-3 alpha (Homo sapiens) (UniProt P49840)?
> 30 µM (inactive)
